Assay: Oral bioavailability in rat
Type: ADME, organism-based
Conditions: in vivo
QUANTITY_NAME: bioavailability (%)
Numbers only, in %.

Quick one: give measured bioavailability for O=C(O)c1cccc(C2=C(c3cc(Cl)ccc3OCc3ccc(F)cc3F)CCC2)n1
54

----------
Could you please report measured CLint scaled for the items listed next?
Experiment: Intrinsic clearance in rat liver microsomes
Format: ADME, Microsome
Give bare numbers, in mL/min/g.

Here is how some compounds turned out for CLint scaled.
STRUCTURE	CLint scaled (mL/min/g)
O=C(O)c1cnnc(C2=C(c3cc(Cl)ccc3OCc3ccc(F)cc3F)CCC2)c1	14
Cc1ncc(C2=C(c3cc(Cl)ccc3OCc3ccc(F)cc3)CCC2)cc1C(=O)O	3.8

Below: the item to evaluate.
Quick one: give measured CLint scaled for O=C(O)c1cncc(C2=C(c3cc(Cl)ccc3OCc3ccc(F)cc3F)CCC2)n1
2.6
